For each of the compounds below, state its diameter of the inhibition zone (DIZ).
Test system: Pseudomonas aeruginosa
Assay: Antibacterial activity against Pseudomonas aeruginosa ATCC 10145 assessed as growth inhibition after 24 to 48 hrs by kirby-bauer disc diffusion method; also: test concentration or dose not given here
Assay type: functional

# count of solved cases: 5
COc1cc(-c2nc3sc4c(c3c(=O)n2-c2ccc3c(C)c5ccc(N)cc5nc3c2)CCCC4)cc(OC)c1OC :: 25 mm
O=c1c2c3c(sc2nc(/C=C/c2ccccc2)n1-c1nc2cc([N+](=O)[O-])ccc2s1)CCCC3 :: 15 mm
CC1(C)S[C@@H]2[C@H](NC(=O)[C@H](N)c3ccccc3)C(=O)N2[C@H]1C(=O)O :: 17 mm
O=C(NO)Nc1nc(/C=C/c2ccccc2)nc2sc3c(c12)CCCC3 :: 12 mm
COc1cc(-c2nc3sc4c(c3c(=O)n2C(N)=O)CCCC4)cc(OC)c1OC :: 17 mm

# return diameter of the inhibition zone (DIZ) for each item in the list
1. Cc1ccc2sc(-n3c(/C=C/c4ccccc4)nc4sc5c(c4c3=O)CCCC5)nc2c1
2. NC(=O)n1c(/C=C/c2ccccc2)nc2sc3c(c2c1=O)CCCC3

Result string:
14 mm
15 mm
